From: patent US20210087522

- TGT: T1, APNPCP, CP of an uncharacterized NRP/PK gene cluster from Anabaena
- T1 chain: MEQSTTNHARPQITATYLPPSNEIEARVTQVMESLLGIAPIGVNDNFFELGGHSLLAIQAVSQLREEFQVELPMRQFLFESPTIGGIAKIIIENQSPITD
PROPERTY_NAME: kcat/Km (M⁻¹ s⁻¹)
Reply with just the number (in M⁻¹ s⁻¹).

Some entries whose results are on file:
SPPT, Sfp-like phosphopantetheinyl transferase (PPTase) from Synechocystis sp. PCC6803 (protein) MLPQPQIWLCPTDRPLIPGYQALLSSEEMARGERYQRPQDKQRFLTMRLALRILLARQLDCLPQQLQFTYGPQGKPELVDRERRSPWFNVAHSGNYGLIGLSTEGEIGVDLQIMLPKPHYLKLAKRFFAPQEVQQLESLEGEKRTKLFYQLWTAKEAFLKATGKGISGGLNQVIPDENLAKYQYLPDSGDTNHWRLSSQPLLADQGSNDNYWMAIAWCTNEVNQVESNYLPNIQPFQWPRNLDSLP: 1670
Sfp, phosphopantetheinyl transferase from Bacillus subtilis (protein) MKIYGIYMDRPLSQEENERFMTFISPEKREKCRRFYHKEDAHRTLLGDVLVRSVISRQYQLDKSDIRFSTQEYGKPCIPDLPDAHFNISHSGRWVIGAFDSQPIGIDIEKTKPISLEIAKRFFSKTEYSDLLAKDKDEQTDYFYHLWSMKESFIKQEGKGLSLPLDSFSVRLHQDGQVSIELPDSHSPCYIKTYEVDPGYKMAVCAAHPDFPEDITMVSYEELL: 3330
MPPT, Sfp-like phosphopantetheinyl transferase (PPTase) from Microcystis aeruginosa NIES843 (protein) MFISTDEVHLYFISLDPSGDRLETLASLLSEDEIIRANRYHFPEHKRRFLVARGCLREILGSYLAISPEKIEFIYSERGKPSINYQLQFNLSHSEEMAICGLTLTARIGVDLEKMRQMKDLDSLTKRFFCAREHELVEKSAEKEKLFFQLWTAKEAYLKAVGTGISGGLDRVEVGLNPLKLDNVAGEWQLWTAAIGDNYRATVVIEGSDRVIKTFGLSDL: 3330

query: Looking for the measured kcat/Km of APPT, Sfp-like phosphopantetheinyl transferase (PPTase) from Anabaena sp. PCC7120 (protein) MLQHTWLPKPPNLTLLSDEVHLWRIPLDQPESQLQDLAATLSSDELARANRFYFPEHRRRFTAGRGILRSILGGYLGVEPGQVKFDYESRGKPILGDRFAESGLLFNLSHSQNLALCAVNYTRQIGIDLEYLRPTSDLESLAKRFFLPREYELLRSLPDEQKQKIFFRYWTCKEAYLKATGDGIAKLEEIEIALTPTEPAKLQTAPAWSLLELVPDDNCVAAVAVAGFGWQPKFWHY , can you help?
result: 10000
